- target.or.system: T1, Recombinant HLA-DRB1*1101 protein (human)
- T1 construct: also called DR1101; HLA-DR1101
- assay.overview: competition with a reference peptide, residual Europium fluorescence
pIC50: −log10 of the molar value.
readout.type: pIC50

Inquiry: Output measured pIC50 for this item: SYATNMFATWSP [FVIII2194-2205, F2196A peptide]
Reply text: < 4.30
